Provide the recorded transcriptional activation domain activity for the entries that follow.
tested on: Saccharomyces cerevisiae; assay: transcriptional activation domain activity (GFP:mCherry ratio, weighted mean of sorted bins, harmonized to initial dataset scale) (arbitrary fluorescence ratio units); higher = stronger transcriptional activation; settings: beta-estradiol 1 µM; induction time 4 h
# answer = number (no unit)

Recorded transcriptional activation domain activity for `LAEGAATEEAKTEEGSAPAGETAALAEAAATEEAAATEEVKEEKKEEAATTKA` with Saccharomyces cerevisiae, please?
29900

For Saccharomyces cerevisiae, provide transcriptional activation domain activity of `ITQRLGENIICAVCITYLHSLLLVTILDRSEGCLLQYSLRMHIASKFQPSHQF` please.
51500

Reported transcriptional activation domain activity for Saccharomyces cerevisiae, given `DKNYNNLTVYNFVYLFGGRVHLYKNLTFHVVVTYVCVISSIVFFLVFIAKWYW` ?
52100

What value of transcriptional activation domain activity on Saccharomyces cerevisiae does `MSFFFFFIRYFPWLFDFWLLAFVFYCLLIPRLNIFFLSFSCFNFLVFSLLLVG` have?
56000

For Saccharomyces cerevisiae, provide transcriptional activation domain activity of `EGEEGEEGEEGEEGEEGTCCASPLQSLALSRLRLGLSLLVDCISIESMRTYRL` please.
34500

Any idea what transcriptional activation domain activity came out for `QAAAPAEKPATAAAGEAEKDGAAARGASTRGRGRGRGRGGRGGATAARRPRAD` on Saccharomyces cerevisiae?
46200

What value of transcriptional activation domain activity on Saccharomyces cerevisiae does `ALRLCRSLLFLCFPFTPIHFFWGSYSDFPPFFFLPAFPRLTLSLLLFYLLPFS` have?
55100

Give Saccharomyces cerevisiae transcriptional activation domain activity for `VMLNQQILYFCLRILCMHAYAQFRMEDSDIWRMVEKKKHIYNRLIELVYTLCS`
46300

Missing value: transcriptional activation domain activity, Saccharomyces cerevisiae, entry `KYLFQSQRFGGHFFQIQVVLRDIEKYLEEVHQFMLQVNIMVLGFHAMLDKAFQ` . Fill in?
55900

Look up transcriptional activation domain activity with Saccharomyces cerevisiae for this sequence: `MSKRAAEGSDSAGSSKKVKQDDSASTVFQKDEEGNLYVDLSSMKRATVSVFRG`
60400

What transcriptional activation domain activity appears in the records for this sequence with Saccharomyces cerevisiae? `SHTAEPSDADGEGTRATRRAKTKSKSTGKSREAGKRSNGARKGGGRADSGGKD`
46800

Identify the measured transcriptional activation domain activity of `MDISFFMLFVFDDFFLYSYFFFPSPRPLSNDATLIHIVCILFIILVGLTIVLL` for Saccharomyces cerevisiae.
36800

Reported transcriptional activation domain activity for Saccharomyces cerevisiae, given `MDNTTDLYNYLVDMGLKFLLFWNMVNCKFCHLCLLMPFDITYIIFIFILLLEF` ?
70300

Item: `MVLLLLLDYNVFCHFNFAVHLYLLPFINKFKRIVLGHLIFLWNYLVQVVVVSP` Test system: Saccharomyces cerevisiae Read-out: transcriptional activation domain activity Value: ?
67600

Give recorded transcriptional activation domain activity with Saccharomyces cerevisiae for the following sequence: `LQLAFYFGFIMVFVCSYMKRNTLVLLLFLLNNLCMVFRFYASDLLYQYWLIPV`
61800

Which measured transcriptional activation domain activity belongs to `DIDMEDVDGDAAPSAKKAKASKKRKKDAESDGEQEKACLSFRTILLHSLIFIQ` , tested on Saccharomyces cerevisiae?
41900

API: value(readout= transcriptional activation domain activity, system= Saccharomyces cerevisiae, query= `SADIERRHHKKNHKGGANAGNAAGNNNNAGGNAGNATAAAANRRDVVEDLQSR` )
13900

I'm curious: which transcriptional activation domain activity was measured for `CLCLILLALLAVELMALFVVITLVILLLIVIVLSLILLFANLMLPLVFLLLYI` tested on Saccharomyces cerevisiae?
26400

# query: transcriptional activation domain activity | item `AEKEAEPEKEAGSESPQKKITPMKRGRGRPKRGGGAAGASSPEPAAVVVVAER` | system: Saccharomyces cerevisiae
14700

Param readout= transcriptional activation domain activity; system= Saccharomyces cerevisiae; entry= `MFVFHMFVFYFVCLFFICLSFILYALFFMSYFYFLLVYFDICFLFLYLFLIFI` ; returns value.
15300
